molecular target: Glucose transporter (Leishmania mexicana) (UniProt O61059); experiment: ST_JUDE_LEISH: Cytotoxicity at 2uM final concentration against transgenic Leishmania Mexicana promastigotes LmGT2 that are glucose transport deficient and complemented with the L. Mexicana glucose transporter 2. Activity is measured by DNA content using SYBR green in vitro; type: functional
result type: inhibition (%)

[
  {
    "compound": "OCCN1CCN(C(=S)NC2CCCCC2)CC1",
    "result type": "inhibition",
    "readout number": -1.81
  },
  {
    "compound": "O=C(Cn1c(SCc2cccc(F)c2F)cc(=O)c2ccccc21)N(CCc1c[nH]cn1)Cc1ccc(-c2ccc(C(F)(F)F)cc2)cc1",
    "result type": "inhibition",
    "readout number": 2.52
  },
  {
    "compound": "CN(CCCc1c[nH]c2ccccc12)CCC1CCC(NC(=O)/C=C/c2ccc(Cl)c(Cl)c2)CC1 (stereo not given)",
    "result type": "inhibition",
    "readout number": 1.8
  },
  {
    "compound": "CC(C)(C)[C@@H](Nc1ccc(C#N)c2ccccc12)C(=O)NC1(Cc2ccc(O)c(Br)c2)CCCC1",
    "result type": "inhibition",
    "readout number": -0.09
  },
  {
    "compound": "COc1ccc2c(N/N=C/c3cccc([N+](=O)[O-])c3)ccnc2c1",
    "result type": "inhibition",
    "readout number": -0.29
  }
]
